# Test system: rabbit skeletal myofibrils (approximately 90% fast fibers)
# protocol: Activation of fast skeletal myofibrils (PUMA coupled-enzyme ATPase assay, AC1.4)
# Assay type: biochemical
# stated conditions: Table 2; concentration at which the compound increased enzymatic activity by 40%; calcium at pCa25
observed property: Mean AC1.4

Below: 4 molecules and their reported Mean AC1.4.
>  <smiles data>
CC(C)(CNc1nc(CNC(=O)CN)ns1)c1ccc(F)cc1

>  <observed result>
C (C=10-20 uM)

$$$$
>  <smiles data>
CC(C)(CNc1nc(CCC(=O)NCCO)ns1)c1ccc(F)cc1

>  <observed result>
C (C=10-20 uM)

$$$$
>  <smiles data>
COc1cccc(Cc2nsc(NCc3ccc(Cl)c(Cl)c3)n2)c1

>  <observed result>
D (D=>20 uM)

$$$$
>  <smiles data>
Fc1ccc(Cc2nsc(NCCc3cccnc3)n2)cc1

>  <observed result>
D (D=>20 uM)

$$$$

Now consider the entry below.
[Q] Which value of Mean AC1.4 has been reported for `Cc1csc(CCNc2nc(Cc3ccc(F)cc3)ns2)n1` in the records?
[A] D (D=>20 uM)

* * *

# Tested on: rabbit skeletal myofibrils (approximately 90% fast fibers)
# protocol: Activation of fast skeletal myofibrils (PUMA coupled-enzyme ATPase assay, AC1.4)
# Type: biochemical
# stated conditions: Table 3; concentration at which the compound increased enzymatic activity by 40%; calcium at pCa25
observed property: Mean AC1.4

Solved entries (count: 8):
>  <smiles data>
Cc1ccc(Br)cc1-c1nnc(NC[C@]2(c3ncccc3F)C[C@@H](F)C2)s1

>  <experimental target>
rabbit skeletal myofibrils (approximately 90% fast fibers)

>  <Mean AC1.4>
A (A=<1 uM)

$$$$
>  <smiles data>
CC(C)(CNc1nnc(-c2cc(Br)ccc2F)s1)c1ncccc1F

>  <experimental target>
rabbit skeletal myofibrils (approximately 90% fast fibers)

>  <Mean AC1.4>
A (A=<1 uM)

$$$$
>  <smiles data>
Fc1cccnc1[C@]1(CNc2nnc(-c3ccc(Br)s3)s2)C[C@@H](F)C1

>  <experimental target>
rabbit skeletal myofibrils (approximately 90% fast fibers)

>  <Mean AC1.4>
B (B=1-10 uM)

$$$$
>  <smiles data>
Fc1cccnc1[C@]1(CNc2nnc(-c3cc(Br)ccc3Cl)s2)C[C@@H](F)C1

>  <experimental target>
rabbit skeletal myofibrils (approximately 90% fast fibers)

>  <Mean AC1.4>
A (A=<1 uM)

$$$$
>  <smiles data>
CC(C)(CNc1nnc(-c2ccc3[nH]nc(N)c3c2)s1)c1ccc(F)cc1

>  <experimental target>
rabbit skeletal myofibrils (approximately 90% fast fibers)

>  <Mean AC1.4>
A (A=<1 uM)

$$$$
>  <smiles data>
Fc1ccc(Br)cc1-c1nnc(NCC2(c3ncccc3F)CCC2)s1

>  <experimental target>
rabbit skeletal myofibrils (approximately 90% fast fibers)

>  <Mean AC1.4>
A (A=<1 uM)

$$$$
>  <smiles data>
NC(=O)c1cccc(-c2nnc(NCC3(c4ncccc4F)CCC3)s2)c1

>  <experimental target>
rabbit skeletal myofibrils (approximately 90% fast fibers)

>  <Mean AC1.4>
A (A=<1 uM)

$$$$
>  <smiles data>
Fc1ccc(Br)cc1-c1nnc(NC[C@]2(c3ncccc3F)C[C@H](F)C2)s1

>  <experimental target>
rabbit skeletal myofibrils (approximately 90% fast fibers)

>  <Mean AC1.4>
A (A=<1 uM)

$$$$

[Q] Recorded Mean AC1.4 of `N#Cc1cccc(-c2nnc(NC[C@]3(c4ncccc4F)C[C@H](F)C3)s2)c1` , please.
[A] B (B=1-10 uM)

[Q] Returns the measured Mean AC1.4 for the input compound. Input: `N#Cc1ccc(F)c(-c2nnc(NCC3(c4ncccc4F)CCC3)s2)c1`
[A] B (B=1-10 uM)

[Q] If you can, please state the reported Mean AC1.4 value of `Fc1cccnc1[C@]1(CNc2nnc(-c3ccccn3)s2)C[C@@H](F)C1` .
[A] B (B=1-10 uM)
